# tested-on: XIAP BIR3 (Homo sapiens, UniProt P98170)
# Construct: covering amino acids 241 to 356; XIAP BIR3
# Sequence (P98170 241-356): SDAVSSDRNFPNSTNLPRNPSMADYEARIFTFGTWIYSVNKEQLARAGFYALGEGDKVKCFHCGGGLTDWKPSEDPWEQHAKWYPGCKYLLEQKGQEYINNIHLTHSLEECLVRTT
# test-summary: XIAP BIR3 binding assay (DELFIA), displacement of SMAC peptide
# measurement-conditions: GST-fusion BIR3 domain (aa 241 to 356) 10 nM, SMAC peptide 10 nM; activity of the (S)-isomers
value-type: IC50 (nM)

Before answering, review these 3 worked examples.
1) CNC(C)C(=O)Nc1ccc(-c2c(C)nc(N3CCOCC3)nc2C)c(C#Cc2ccc3cnccc3c2)n1 (centres unmarked) | 446
2) CNC(C)C(=O)Nc1ccc(-c2cc(C(=O)OC)ccc2OC)c(C#Cc2ccccc2)n1 (centres unmarked) | 305
3) CNC(C)C(=O)Nc1ccc(-c2c(C)nc3ccccn23)c(C#Cc2ccc3cnccc3c2)n1 (centres unmarked) | 145

[I] CNC(C)C(=O)Nc1ccc(-c2cnc3ccccc3c2)c(C#Cc2ccc3ccccc3c2)n1 (centres unmarked)
[II] CNC(C)C(=O)Nc1ccc(N(C)C(=O)C2CCCC2)c(C#Cc2ccccc2)n1 (centres unmarked)
[III] CNC(C)C(=O)Nc1ccc(-c2ccc([N+](=O)[O-])nc2)c(C#Cc2ccccc2)n1 (centres unmarked)
Hey, can you sort those molecules up there by IC50, smallest first? In your reply, arrange the labels in the requested order.
III, I, II

[1] CNC(C)C(=O)Nc1cc(C(F)(F)F)cc(C#Cc2ccccc2)n1 (centres unmarked)
[2] CC(N)C(=O)Nc1ccc(-c2ccccc2C#N)c(C#Cc2ccccc2)n1 (centres unmarked)
Endpoint returns the identifier whose IC50 is numerically larger, either 1 or 2 . Returns: label corresponding to the selected item.
1
(1: 10500 nM, 2: 650 nM)
